experimental-system: T1, hErbB3.mFc (soluble dimeric human ErbB3 extracellular domain fused to mouse Fc) (human)
T1 construct: called dimeric
T1 chain: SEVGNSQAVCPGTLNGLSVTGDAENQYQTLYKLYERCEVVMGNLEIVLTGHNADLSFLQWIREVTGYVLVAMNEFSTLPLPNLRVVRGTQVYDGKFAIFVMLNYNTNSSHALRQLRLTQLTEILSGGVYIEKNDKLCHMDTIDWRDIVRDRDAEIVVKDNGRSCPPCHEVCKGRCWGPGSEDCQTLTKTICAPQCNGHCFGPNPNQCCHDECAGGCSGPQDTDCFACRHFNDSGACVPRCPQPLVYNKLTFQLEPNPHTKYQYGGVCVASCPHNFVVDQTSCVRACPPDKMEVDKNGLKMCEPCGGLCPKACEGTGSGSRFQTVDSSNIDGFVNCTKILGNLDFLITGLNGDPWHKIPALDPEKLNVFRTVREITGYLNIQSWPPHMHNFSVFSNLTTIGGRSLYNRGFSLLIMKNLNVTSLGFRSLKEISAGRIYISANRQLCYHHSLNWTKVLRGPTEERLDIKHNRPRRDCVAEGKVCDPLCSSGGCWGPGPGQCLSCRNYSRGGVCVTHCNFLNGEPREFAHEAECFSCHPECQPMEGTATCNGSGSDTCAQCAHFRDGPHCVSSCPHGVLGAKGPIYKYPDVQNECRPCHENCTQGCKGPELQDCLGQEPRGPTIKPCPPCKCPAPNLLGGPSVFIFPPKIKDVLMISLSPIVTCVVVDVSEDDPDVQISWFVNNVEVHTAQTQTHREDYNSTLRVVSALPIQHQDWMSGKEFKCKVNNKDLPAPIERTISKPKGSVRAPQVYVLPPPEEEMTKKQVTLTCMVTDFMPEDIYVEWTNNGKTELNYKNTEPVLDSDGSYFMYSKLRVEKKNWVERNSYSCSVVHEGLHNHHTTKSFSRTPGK
test-details: SPR (Biacore), 25 C, mAb capture format
pKd values for the binders below.
Would you please state pKd, meaning minus log10 of the concentration in mol/L, as a bare number?

Record excerpt, results attached:
* H4H2138P (antibody, V domains shown, Fully human, human IgG4 Fc (H4H prefix)) VH: QVQLQESGPGLVKPSQTLSLTCTVSGGSINSGGYYWSWIRQHPGKGLEWIGYISYSGNTNYNPSLKSRVTISVDTSKNQFSLTLTSVTAADTAVYYCARDSDVDTGLVDGFDVWGQGTMVTVSS VL: DIVMTQSPSSVSASVGDRVTITCRASQGVSSWLAWYQQKPGKAPKLLIYTTSSLQSGVPSRFSGSGSGTDFTLTISSLQPEDFATYYCQQSNSFPFTFGPGTKVEIK | 11.83
* H4H1819N (antibody, V domains shown, Human IgG4 Fc (H4H prefix); same variable domains as H1M1819N) VH: EVQLVESGGGVVRPGGSLRLSCAASGFTFDDYAMHWVRQAPGKGLEWVAGISWNSGSIDYADSVKGRFTISRDNAKNSLYLQMNSLRAGDTALYYCAKDILDLDYYGLDVWGQGTTVTVSS VL: DIQMTQSPSSLSASVGDRVTITCRASQDISSYLAWYQQKPGKVPNLLIYDASSLQSGVPSRFSGSGSGTDFTLTLSSLQPEDFASYYCQNYNSAPYTFGQGTKLEIK | 12.03
* H4H2084P (antibody, V domains shown, Fully human, human IgG4 Fc (H4H prefix)) VH: QVQLVESGGGVVQSGKSLRLSCVASGFTFSNYGMHWVRQTPGKGLEWVARIWFDGTNKYYTDSVKGRFTLSRDSSKNTLYLQMNSLRAEDTAVYFCAREESLELDHYVMDVWGQGTTVTVSS VL: AIQMTQSPSSLSASVGDRVTITCRASQDIRDDLGWFQQKPGKAPNLLIYAASSLQSGVPSRFSGSGSGTDFTLTISSLQPEDFATYYCLQDYNYPLTFGGGTKVEIKR | 11.99
* H4H2140P (antibody, V domains shown, Fully human, human IgG4 Fc (H4H prefix)) VH: EVQLVESGGGLVQPGGSLRLSCAASGFSVSYYDMHWVRQVTGKGLEWVSAIGPAGDTYYPGSVKGRFTISREDATNSLYLQIHSLGAGDTAVYYCAREGAIAARPDDYYGMDVWGQGTTVTVSS VL: DIQLTQSPSFLSASVGDRVTITCWASQDISSYLAWYQQKPGKAPKLLIYAASTLQSGVPSRFSGSGSGTEFTLTISSLQPEDFATYYCQQLNSYPLTFGGGTKVEIKR | 12.41

Now for another entry.
Note down pKd recorded for H4H2108P (antibody, V domains shown, Fully human, human IgG4 Fc (H4H prefix)) VH: EVQLLESGGDLVQPGGSLRLSCATSGFSFSSDAMNWVRQAPGKGLEWVSGISGSGGNTYYADSVKGRFTISRDISKSTLSLQMNSLRAEDTAVYYCAKEGTNMVRGVVMEDNGMDVWGQGTTVTVSA VL: DIQMTQSPSSVSASVGDRVTITCRASQGISDYLAWYQQKPGKAPKLLIYAASSLQSGVPSRFSGRGSGTDFTLTISTLQPEDFATYYCQQANSFPLTFGGGTKVDIKR
11.84
